These entries and their values trace back to ChEMBL document CHEMBL4138284.

- Test system: Staphylococcus aureus
- Measurement Protocol: Antibacterial activity against methicillin-resistant Staphylococcus aureus isolate 11 incubated overnight by agar dilution method
- Assay type: functional
Parameter Measured: MIC (µg/mL)
Unit µg/mL implied. Number only.

Known results for compounds:
• C[C@]12C[C@]34C[C@@H]1C[C@H](O2)[C@H]3[C@](C)(CCC(=O)Nc1c(O)ccc(C(=O)O)c1O)C(=O)C[C@@H]4SC(=O)c1ccc([N+](=O)[O-])cc1 = 8
• C[C@]12C[C@@]34C=CC(=O)[C@@](C)(CCC(=O)Nc5c(O)ccc(C(=O)O)c5O)[C@@H]3[C@H](C[C@@H]1C4)O2 = 1
• CCS[C@H]1CC(=O)[C@@](C)(CCC(=O)Nc2c(O)ccc(C(=O)O)c2O)[C@@H]2[C@@H]3C[C@H]4C[C@]12C[C@]4(C)O3 = 1

Continue with the compound presented below.
# return MIC of C[C@]12C[C@]34C[C@@H]1C[C@H](O2)[C@H]3[C@](C)(CCC(=O)Nc1c(O)ccc(C(=O)O)c1O)C(=O)C[C@@H]4SC(=O)c1ccc(C(F)(F)F)cc1 (system: Staphylococcus aureus)
2

###

- Test system: Staphylococcus aureus
- Measurement Protocol: Antibacterial activity against methicillin-resistant Staphylococcus aureus isolate 6 incubated overnight by agar dilution method
- Type: functional
Parameter Measured: MIC (µg/mL)
Unit µg/mL implied. Number only.

* C=C1C[C@@]23CCC1C[C@@H]2[C@](C)(CCC(=O)Nc1c(O)ccc(C(=O)O)c1O)C(=O)C[C@@H]3SC(=O)c1ccccc1 (single isomer, unassigned) | 2
* COc1ccc(C(=O)S[C@H]2CC(=O)[C@@](C)(CCC(=O)Nc3c(O)ccc(C(=O)O)c3O)[C@@H]3[C@@H]4C[C@H]5C[C@]23C[C@]5(C)O4)cc1 | 1

Continue with the compound presented below.
For the compound C=C1C[C@@]23CCC1C[C@@H]2[C@](C)(CCC(=O)Nc1c(O)ccc(C(=O)O)c1O)C(=O)C[C@@H]3SC(C)=O (single isomer, unassigned) , give its measured MIC value.
2
